Reference source: patent US20250129095A1

target: KRAS (G12D)::SOS1 (Homo sapiens, UniProt P01116, G12D); construct: KRAS (G12D) 1-169, N-terminal 6His-tag, C-terminal avi-tag; 6His-tag (N); Viva Biotech Ltd (SOS1); assay: KRAS::SOS1 AlphaScreen binding assay, KRAS G12D; details: read-out: KRASG12D IC50
Sequence (P01116 1-169 isoform P01116-2 G12D): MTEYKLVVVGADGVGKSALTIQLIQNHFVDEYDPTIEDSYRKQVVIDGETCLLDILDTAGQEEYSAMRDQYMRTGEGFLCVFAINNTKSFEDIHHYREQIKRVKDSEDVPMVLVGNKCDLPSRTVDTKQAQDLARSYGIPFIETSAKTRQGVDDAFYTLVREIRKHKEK
Measured Quantity: IC50 (nM)

>  <Smiles Text>
C[C@H](Oc1cc(Nc2cccnn2)nc(-c2noc3c2CCC[C@@]32CCCc3sc(N)c(C#N)c32)n1)[C@@H]1CCCN1C

>  <IC50 (nM)>
2

$$$$

(A) C[C@H](Oc1cc(Nc2ncccn2)nc(-c2noc3c2CCC[C@@]32CCCc3sc(N)c(C#N)c32)n1)[C@@H]1CCCN1C
(B) CO[C@@H]1C[C@@H]([C@H](C)Oc2cc(O[C@@H]3CNC3(C)C)nc(-c3noc4c3CCC[C@@]43CCCc4sc(N)c(C#N)c43)n2)N(C)C1
Hey, which is lower on measured IC50, A or B ? Output the label that corresponds to your choice.
B
(B: 1 nM, A: 2 nM)
